# Tested on: CCRF-CEM
# protocol: In vitro growth inhibitory activity against CCRF-CEM (human lymphoblastic leukemic) cells.
# Format: functional
# conditions: read-out: ID50 (the source's name)
measured_attribute: pIC50
Quick note: pIC50 means taking -log10 of the concentration in moles per liter.

{"columns": ["compound", "experimental_target", "measured_attribute", "recorded_result"],
 "data": [
  ["COc1cccc2c1C(=O)c1c(O)c3c(c(O)c1C2=O)C=C(C(=O)CO)C[C@@H]3OC1CC(N)C(O)C(C)O1 (stereo partly drawn)", "CCRF-CEM", "pIC50", 5.64],
  ["COc1cccc2c1C(=O)c1c(O)c3c(c(O)c1C2=O)C[C@@](O)(C(=O)CO)C[C@@H]3O[C@H]1C[C@H](N)[C@H](O)[C@H](C)O1", "CCRF-CEM", "pIC50", 7.18],
  ["COc1cccc2c1C(=O)c1c(O)c3c(c(O)c1C2=O)C[C@@](O)(C(C)=O)C[C@@H]3O[C@H]1C[C@H](N)[C@H](O)[C@H](C)O1", "CCRF-CEM", "pIC50", 7.40],
  ["COc1cccc2c1C(=O)c1c(O)c3c(c(O)c1C2=O)C=C(C(C)=O)C[C@@H]3O", "CCRF-CEM", "pIC50", 5.00],
  ["COc1cccc2c1C(=O)c1c(O)c3c(c(O)c1C2=O)C=C(C(C)=O)C[C@@H]3OC1CC(NC(=O)C(F)(F)F)C(O)C(C)O1 (stereo partly drawn)", "CCRF-CEM", "pIC50", 5.59],
  ["CCCCC(=O)OCC(=O)C1=Cc2c(O)c3c(c(O)c2[C@@H](OC2CC(NC(=O)C(F)(F)F)C(O)C(C)O2)C1)C(=O)c1c(OC)cccc1C3=O (stereo partly drawn)", "CCRF-CEM", "pIC50", 5.57]
]}

For this compound ( CCCCC(=O)OCC(=O)[C@@H]1Cc2c(O)c3c(c(O)c2[C@@H](OC2CC(NC(=O)C(F)(F)F)C(O)C(C)O2)C1)C(=O)c1c(OC)cccc1C3=O (stereo partly drawn) ), measured pIC50 is 5.33

For this compound ( CCCCC(=O)OCC(=O)[C@]1(O)Cc2c(O)c3c(c(O)c2[C@@H](OC2CC(NC(=O)C(F)(F)F)C(O)C(C)O2)C1)C(=O)c1c(OC)cccc1C3=O (stereo partly drawn) ), measured pIC50 is 6.64

For this compound ( COc1cccc2c1C(=O)c1c(O)c3c(c(O)c1C2=O)CC(C(C)=O)C[C@@H]3OC1CC(NC(=O)C(F)(F)F)C(O)C(C)O1 (stereo partly drawn) ), measured pIC50 is 5.40
